- TARGET_SYSTEM: Recombinant Cat D (Homo sapiens (Human), UniProt P07339)
- Sequence (P07339 65-412): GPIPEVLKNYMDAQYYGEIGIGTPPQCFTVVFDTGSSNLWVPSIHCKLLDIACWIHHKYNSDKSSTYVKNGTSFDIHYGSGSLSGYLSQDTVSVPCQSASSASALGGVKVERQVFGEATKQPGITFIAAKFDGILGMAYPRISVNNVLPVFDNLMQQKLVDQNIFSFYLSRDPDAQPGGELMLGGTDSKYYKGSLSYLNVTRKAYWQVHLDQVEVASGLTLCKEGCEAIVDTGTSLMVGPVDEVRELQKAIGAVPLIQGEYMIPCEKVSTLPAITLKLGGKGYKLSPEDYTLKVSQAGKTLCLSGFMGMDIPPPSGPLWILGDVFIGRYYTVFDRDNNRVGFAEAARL
- ASSAY_OVERVIEW: In vitro enzymatic Cathepsin D (Cat D) FRET assay
- Assay type: biochemical
- TEST_CONTEXT: read-out: IC50 IP (μM) CatD
- Method: In Vitro Enzymatic Cathepsin D (Cat D) FRET (Fluorescence Resonance Energy Transfer) Assay Recombinant Cat D was expressed in CHO cells. The assay buffer for CathepsinD is 0.05 M citrate pH 3.5, 10% DMSO final, 5 mM CHAPS. […] The FRET assay is terminated with by addition of Tris buffer, which raises the pH to neutrality, and the fluorescence is determined. […] Proteolytic cleavage of the FRET substrate releases quenching of fluorescence (Cat D excitation 500 nm and emission 580 nm).
MEASURED_QUANTITY: IC50 (µM)

1) C[C@]1(c2cc(NC(=O)c3ccc(Cl)cn3)cc(F)c2F)N=C(N)S[C@@]2(C(=O)N3CCCC3)C[C@H]21 :: 254
2) C#CCOc1cnc(C(=O)Nc2cnc(F)c([C@@]3(C)N=C(N)S[C@@]4(CF)C[C@H]43)c2)cn1 :: 278
3) CC(C)Oc1cnc2c(Nc3cc(F)c(F)c([C@@]4(C)N=C(N)S[C@@]5(C(F)F)C[C@@H]45)c3)nccc2n1 :: 223
4) CNC(=O)[C@]12C[C@H]1[C@@](C)(c1cc(NC(=O)c3ccc(Cl)cn3)ccc1F)N=C(N)S2 :: 1120
5) C#CCOc1cnc2c(Nc3cnc(F)c([C@@]4(C)N=C(N)S[C@@]5([C@H](OC)C(F)(F)F)C[C@H]54)c3)nccc2n1 :: 337
6) NC1=N[C@](CF)(c2cc(NC(=O)c3ccc(Cl)cn3)ccc2F)[C@H]2C3CSC[C@@]32S1 (some centres unmarked) :: 21
7) C#CCOc1cnc2c(Nc3cc(F)c(F)c([C@@]4(C)N=C(N)S[C@@]5(S(C)(=O)=O)C[C@H]54)c3)nccc2n1 :: 74.9
8) C#CCOc1cnc2c(Nc3ccc(F)c([C@@]4(C)N=C(N)S[C@@]5(C(=O)NC6CC6)C[C@H]54)c3)ncnc2c1 :: 317
9) Cc1cc(OCC(F)(F)F)cnc1C(=O)Nc1cc(F)c(F)c([C@@]2(C)N=C(N)S[C@@]3(C(F)F)C[C@@H]23)c1 :: 375
10) Cc1nc(COc2cnc3c(Nc4cc(F)c(F)c([C@@]5(C)N=C(N)S[C@@]6(C(F)F)C[C@@H]56)c4)nccc3n2)c(C)o1 :: 136
11) COC[C@]12C[C@H]1[C@@](C)(c1cc(NC(=O)c3ncc(OCC(F)(F)F)cc3C)ccc1F)N=C(N)S2 :: 1450

----------
- TARGET_SYSTEM: Recombinant Cat D (Homo sapiens (Human), UniProt P07339)
- ASSAY_OVERVIEW: In vitro enzymatic Cathepsin D (Cat D) FRET assay
- Format: biochemical
- TEST_CONTEXT: read-out: IC50 IP (μM) CatD
- Experimental: In Vitro Enzymatic Cathepsin D (Cat D) FRET (Fluorescence Resonance Energy Transfer) Assay Recombinant Cat D was expressed in CHO cells. The assay buffer for CathepsinD is 0.05 M citrate pH 3.5, 10% DMSO final, 5 mM CHAPS. […] The FRET assay is terminated with by addition of Tris buffer, which raises the pH to neutrality, and the fluorescence is determined. […] Proteolytic cleavage of the FRET substrate releases quenching of fluorescence (Cat D excitation 500 nm and emission 580 nm).
Quick list: IC50 per entry.
MEASURED_QUANTITY: IC50

1) C[C@]1(c2cc(Nc3nccc4nc(OCc5ncco5)cnc34)ccc2F)N=C(N)S[C@@]2(CF)C[C@H]21 :: 526 µM
2) C#C[C@@H](C)Oc1cnc(C(=O)Nc2ccc(F)c([C@@]3(C)N=C(N)S[C@@]4(COC)C[C@H]43)c2)cn1 :: > 400 µM
3) Cc1nc(OCc2ncco2)cnc1C(=O)Nc1cc(F)c(F)c([C@@]2(C)N=C(N)S[C@@]3(C(F)F)C[C@@H]23)c1 :: 1010 µM
4) C#CCOc1cnc2c(Nc3cc(F)c(F)c([C@@]4(CF)N=C(N)S[C@H]5C[C@H]54)c3)nccc2n1 :: 598 µM
5) CCNC(=O)[C@]12C[C@H]1[C@@](C)(c1cc(NC(=O)c3cnc(OCC(F)(F)F)cn3)ccc1F)N=C(N)S2 :: 577 µM
6) COC[C@]12C[C@H]1[C@@](C)(c1cc(NC(=O)c3cnc(OCC4CC(F)(F)C4)cn3)cc(F)c1F)N=C(N)S2 :: 475 µM
7) Cc1cc(OCC(F)(F)F)cnc1C(=O)Nc1cc(F)c(F)c([C@@]2(C)N=C(N)S[C@@]3(C#N)C[C@H]32)c1 :: > 400 µM
